# Test system: CCRF-CEM leukemia
# assay_protocol: NCI tumour cell line growth inhibition, 48 h
Would you mind telling me the reported TGI of each entry?

Using known records, supply TGI for `CCC(=O)ONC(=O)Cn1ccc([N+](=O)[O-])n1`
> 100 µM

Using known records, supply TGI for `CCSc1nc(SCC)c2cn[nH]c2n1`
> 100 µM

Using known records, supply TGI for C=C1CCC(CC[C@@H]2CC[C@]3(OC2)O[C@@]2(O)CC[C@]3(C)OC2(C)C)C(C)(C)[C@H]1C/C=C1/C(=O)OC[C@@H]1O (some centres not stated)
2.32 µM

Using known records, supply TGI for C#Cc1c(I)n(C2OC(CO[Si](C)(C)C(C)(C)C)C3OC(C)(C)OC32)c(=O)[nH]c1=O (configuration not stated)
11.9 µM

Using known records, supply TGI for Cc1ccc2c(c1)C(=O)C1(C2)Cc2cccc(C)c2C1=O (configuration not stated)
> 100 µM

Using known records, supply TGI for `COc1ccc(CCN2COc3c([C@@H](C)CCC=C(C)C)ccc(C)c3C2)cc1OC`
21.1 µM

Using known records, supply TGI for `C1C[OH+]CC[OH+]CC[OH+]CC[OH+]CC[OH+]1.[Cl-].[V]`
> 100 µM

Using known records, supply TGI for Nc1ccn(C2CCC(CO)O2)c(=O)n1 (configuration not stated)
> 1000 µM

Using known records, supply TGI for `COc1cc2[nH]c(C(=O)c3cc(OC)c(OC)c(OC)c3)c(N)c2cc1C#CC1CC1`
> 100 µM

Using known records, supply TGI for `C=C1C(=O)C=C[C@]2(C)CC[C@H]3C(=C)C(=O)O[C@@H]3[C@@H]12`
> 100 µM

Using known records, supply TGI for `O=c1c2cc(Br)cc(Br)c2nc(CCCl)n1CCO`
> 100 µM

Using known records, supply TGI for Nc1nc(F)nc2c1ncn2C1OC(CO)C(O)C1O (configuration not stated)
> 77 µM

Using known records, supply TGI for CCOC(=O)C1C2CCC1CC(=NNc1ccc([N+](=O)[O-])cc1[N+](=O)[O-])C2 (configuration not stated)
> 50 µM

Using known records, supply TGI for C[N+]12CCCCC1C(CN1C(=O)Cc3c4ccccc4c(c4ccccc34)CC1=O)CCC2 (configuration not stated)
> 100 µM

Using known records, supply TGI for `COc1ccc(C(=O)COc2ccc(/C=C3\COc4ccc(OC)cc4C3=O)cc2)cc1`
10.2 µM

Using known records, supply TGI for `O=[N+]([O-])/C(C(Cl)=C(Cl)Cl)=C(\N1CCCCC1)n1cncn1`
> 100 µM

Using known records, supply TGI for COC1C=COC2(C)Oc3c(C)c(O)c4c(O)c(c(C5SCCS5)c(O)c4c3C2=O)NC(=O)C(C)=C/C=C\C(C)C2OC(C)(C)OC(C2C)C(C)C(OC(C)=O)C1C (configuration not stated)
> 100 µM

Using known records, supply TGI for `Nc1ccc(S(=O)(=O)Nc2nccs2)cc1`
> 100 µM

Using known records, supply TGI for `Cc1ncc(CCCN(C)C)cc1Nc1ncc2c(n1)-c1ccc(C(F)(F)F)cc1NC(=S)C2`
10.4 µM

Using known records, supply TGI for `COc1cccc(/C=N/n2c(C)n[nH]c2=O)c1`
> 100 µM

Using known records, supply TGI for OCc1ccc(C2CC(c3ccco3)=NN2c2ccccc2)o1 (configuration not stated)
> 100 µM

Using known records, supply TGI for `O=C(O)/C=c1/c2ccccc2n2nc3ccccc3c12`
99.6 µM

Using known records, supply TGI for `COC(=O)C1=C(C)NC(C)=C(C(=O)OC)C1c1nc2sccn2c1[N+](=O)[O-]`
> 100 µM

Using known records, supply TGI for `Cc1nc2sc3ccccc3n2c(=O)c1N=Nc1ccc(Cl)cc1`
> 100 µM

Using known records, supply TGI for `O=c1c2ccccc2c(=O)c2c1[nH]c1c(-c3ccccc3)c(-c3ccccc3)c(=O)c12`
11 µM

Using known records, supply TGI for `COc1cccc(C#Cc2ccccc2C#CCCCCO)c1`
17.4 µM

Using known records, supply TGI for CCN1CCC(O)(/C=C/c2ccc(C)cc2C)C(C(=O)/C=C/c2ccc(C)cc2C)C1 (configuration not stated)
7.8 µM

###

# Test system: COLO 205 colon
# assay_protocol: NCI tumour cell line growth inhibition, 48 h; in the data active = GI50 below about 0.43 µM; inactive = the rest
Respond using exactly one of the listed classes: active, inactive

What did the test return for `COc1cccc(C#Cc2ccccc2C#CCCCCO)c1` ?
inactive

What did the test return for `COc1cc(/C=C/c2cc(/C=C/c3ccc(O)c(OC)c3)n(C(=O)Nc3ccc(C)cc3C)n2)ccc1O` ?
inactive

What did the test return for `COc1ccc(CCN2COc3c([C@@H](C)CCC=C(C)C)ccc(C)c3C2)cc1OC` ?
inactive

What did the test return for `Br[C](Br)(Br)[Hg][c]1ccccc1` ?
inactive

What did the test return for `COc1cc2[nH]c(C(=O)c3cc(OC)c(OC)c(OC)c3)c(N)c2cc1C#CC1CC1` ?
inactive

What did the test return for `O=c1cc(NC2CCN(CCCc3ccccc3)CC2)c2cc(Cl)ccc2o1` ?
inactive

What did the test return for C#Cc1c(I)n(C2OC(CO[Si](C)(C)C(C)(C)C)C3OC(C)(C)OC32)c(=O)[nH]c1=O (stereo unspecified) ?
inactive

What did the test return for `CC1(C)[C@@H](OC(N)=O)[C@H]2O[C@H]2[C@]2(C=O)[C@H]3CC[C@]4(C)[C@@H](c5ccc(=O)oc5)[C@@H](Cl)C[C@]4(O)C3=CC[C@@H]12` ?
active

What did the test return for `CCCCON(OC(=O)c1ccc2ccc3cccc4ccc1c2c34)C(C)=O` ?
inactive

What did the test return for `O=c1cccc(C#CC#CC2=CCCCC2)o1` ?
inactive

What did the test return for `O=C1Nc2ccc(F)cc2/C1=C/c1ccc[nH]1` ?
inactive

###

# Tested on: HS 578T breast
# assay_protocol: NCI tumour cell line growth inhibition, 48 h
Tick label 1 if TGI is 40 µM or greater. Tick label 0 if TGI is less than 40 µM.

Please check the record `COc1ccc(-c2nn(-c3ccc(NC(=O)Nc4cc(C(F)(F)F)cc(C(F)(F)F)c4)cc3)cc2-c2ccncc2)cc1Cl` and state if its TGI is at or above 40 µM.
label 0

Please check the record `COc1ccc(CCN2COc3c([C@@H](C)CCC=C(C)C)ccc(C)c3C2)cc1OC` and state if its TGI is at or above 40 µM.
label 0

Please check the record `NNC(=O)CSc1nc2ccccc2c(=O)n1N` and state if its TGI is at or above 40 µM.
label 1

Please check the record `CCSc1nc(SCC)c2cn[nH]c2n1` and state if its TGI is at or above 40 µM.
label 1

Please check the record `CCCCCCCCCCCCCCCCCCOc1ccccc1CC(=O)OCC[N+]1(C)CCCC1` and state if its TGI is at or above 40 µM.
label 0

Please check the record C=C1C(=O)OC2/C=C(\COC(C)=O)CCC(OC(C)=O)C3=CC(OC3=O)C12 (stereo not given) and state if its TGI is at or above 40 µM.
label 1

Please check the record NC(CCC(=O)NC(CSCC1C(=O)Nc2ccccc21)C(=O)NCC(=O)O)C(=O)O (stereo not given) and state if its TGI is at or above 40 µM.
label 1

Please check the record COc1ccc2cc(C(C)C(=O)N3CCOC3=O)ccc2c1 (stereo not given) and state if its TGI is at or above 40 µM.
label 1

Please check the record `CC/C=C\C[C@H]1C/C=C2/C(=O)C=C[C@@H]2C/C=C\CCCC(=O)O1` and state if its TGI is at or above 40 µM.
label 0

###

# Test system: SK-OV-3 ovarian
# assay_protocol: NCI tumour cell line growth inhibition, 48 h
Tick condition met if TGI is 50 µM or greater. Tick condition not met if TGI is less than 50 µM.

Please check the record `C1C[OH+]CC[OH+]CC[OH+]CC[OH+]CC[OH+]1.[Cl-].[V]` and state if its TGI is at or above 50 µM.
condition met

Please check the record CC(C)(C)C(=O)CC1=Nc2ccccc2SC1(O)CC(=O)C(C)(C)C (stereo unspecified) and state if its TGI is at or above 50 µM.
condition met

Please check the record `Cc1c(C(=O)/C=C/c2ccccc2)[n+](=O)c2ccccc2n1[O-]` and state if its TGI is at or above 50 µM.
condition not met

Please check the record `CC(=O)O[C@H]1CC[C@@]2(C)C(=CC[C@H]3[C@@H]4C[C@H](N5CCOCC5)[C@H](OC(C)=O)[C@@]4(C)CC[C@@H]32)C1` and state if its TGI is at or above 50 µM.
condition met

Please check the record C=C(Cl)C(C)(Cl)CCC(Br)C(C)(C)Cl (stereo unspecified) and state if its TGI is at or above 50 µM.
condition not met

Please check the record Cc1ccc(-c2nc3ccc(Cl)cc3c(=O)n2N2C(=O)CSC2c2ccccc2Cl)cc1 (stereo unspecified) and state if its TGI is at or above 50 µM.
condition not met

Please check the record `CN1COCc2c1ccc1cc3ccc4c(c3nc21)COCN4S(C)(=O)=O` and state if its TGI is at or above 50 µM.
condition met

Please check the record CC(C(O)Cc1ccccc1)N(C)N=Nc1ccc([N+](=O)[O-])cc1 (stereo unspecified) and state if its TGI is at or above 50 µM.
condition met

Please check the record `COc1cc2c3c(c1OC)C1(C=CC(=O)C=C1)C[C@H]3N(C)CC2` and state if its TGI is at or above 50 µM.
condition met

Please check the record `COc1cccc(/C=N/n2c(C)n[nH]c2=O)c1` and state if its TGI is at or above 50 µM.
condition met

The origin of these recorded values is PubChem BioAssay (NCI).
